# Assay Details: Cmax in mouse plasma at 50 mg/kg, po LC-MS analysis
# Type: ADME, organism-based
# Set-up: dose 50 mg/kg, route oral
# Assay Conditions: plasma
Reported Endpoint: Cmax (µM)
// note: answer is a bare numeric in µM

INPUT: Look up and report measured Cmax for this entry: "O=C(Nc1ccc(F)c(-c2nc3cc(-c4ccccc4)cnc3[nH]2)c1)N1CCCC1"
OUTPUT: 4.3

====

# Assay Details: Clearance in mouse plasma at 50 mg/kg, po by LC-MS analysis
# Format: ADME, organism-based
# Design: dose 50 mg/kg, route oral
Reported Endpoint: CL/F (mL/min/kg)
// note: answer is a bare numeric in mL/min/kg

INPUT: Look up and report measured CL/F for this entry: "O=C(Nc1ccc(Cl)c(-c2nc3ncccc3o2)c1)c1ccco1"
OUTPUT: 98

Every entry's value here was drawn from ChEMBL document CHEMBL3112469.
